TARGET_SYSTEM: Cell division control protein 42 homolog (Homo sapiens)
ASSAY_PROTOCOL: small GTPase panel, fluorescent GTP binding blockade – biochemical, Mg buffer, constant GTP, RhoA, Rac1, Cdc42, mechanism study for Ras-family GTPase inhibitor project, profiling panel (AID 2393);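 note: EC50 marks half change in GTP binding and may reflect gain or loss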
PROTOCOL_CONDITIONS: GST-GTPase beads, BODIPY-GTP binding, flow cytometry, Cdc42WT
Active and inactive are the calls of the source.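 Rule for the calls: active = none, because compounds meeting the potency rule were filed inconclusive for hitting several proteins; inconclusive = EC50 under 20 µM with over 15% binding change; inactive = the rest.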
Hi there, use one of these labels in your reply, thanks! 1 (yes) for active, 0 (no) for inactive

Q: Please share the test call associated with COc1ccc(C2CC(c3cccs3)=NN2c2ccc(S(N)(=O)=O)cc2)cc1 (stereo not given) .
A: 1 (yes)

Q: Given COc1ccc(-c2cc(CCC(=O)N3CCN(c4cc(C)ccc4C)CC3)on2)cc1 , state the outcome it received in this test.
A: 1 (yes)

Q: What is the recorded call for this compound in the test? Cc1ccccc1C1CC(c2ccccc2)=NN1c1ccc(S(N)(=O)=O)cc1 (stereo not given)
A: 1 (yes)

Q: Check the results log: what was the call for Cc1ccc(C2CC(c3ccccc3)=NN2c2ccc(S(N)(=O)=O)cc2)cc1 (stereo not given) ?
A: 1 (yes)

Q: What is the recorded call for this compound in the test? COc1ccc(C2CC(c3ccccc3OC)=NN2c2ccc(S(N)(=O)=O)cc2)cc1 (stereo not given)
A: 1 (yes)

Q: Called result for COc1ccc(C2CC(c3cccc(OC)c3)=NN2c2ccc(S(N)(=O)=O)cc2)cc1 (stereo not given)
A: 1 (yes)

Q: For COc1cccc(C2CC(c3ccccc3)=NN2c2ccc(S(N)(=O)=O)cc2)c1 (stereo not given) , what call appears in the results of this test?
A: 1 (yes)

Q: In this assay, the call recorded for NS(=O)(=O)c1ccc(N2N=C(c3ccccc3)CC2c2cccc(Cl)c2)cc1 (stereo not given) was what?
A: 1 (yes)

Q: Answer briefly: the call reported for NS(=O)(=O)c1ccc(N2N=C(c3ccccc3)CC2c2ccc(Br)cc2)cc1 (stereo not given) in this assay.
A: 1 (yes)

Q: Called result for NS(=O)(=O)c1ccc(N2N=C(c3ccccc3)CC2c2ccccc2Cl)cc1 (stereo not given)
A: 0 (no)

Q: Which outcome was entered for the compound COc1ccc(C2CC(c3ccccc3)=NN2c2ccc(S(N)(=O)=O)cc2)cc1 (stereo not given) in this test?
A: 1 (yes)

Q: Hello, I am checking results. What call was entered for COc1ccc(C2CC(C(C)(C)C)=NN2c2ccc(S(N)(=O)=O)cc2)cc1 (stereo not given) ?
A: 1 (yes)

Q: Outcome? COc1ccc(C2CC(c3cccc(C)c3)=NN2c2ccc(S(N)(=O)=O)cc2)cc1 (stereo not given)
A: 1 (yes)

Q: Any idea what this test logged for NS(=O)(=O)c1ccc(N2N=C(c3ccccc3)CC2c2ccc(Cl)cc2)cc1 (stereo not given) ?
A: 1 (yes)

Q: Please state the recorded outcome for this compound: NS(=O)(=O)c1ccc(N2N=C(c3ccccc3)CC2c2ccccc2)cc1 (stereo not given)
A: 1 (yes)

Q: Recorded test call requested for Cc1cccc(C2CC(c3ccccc3)=NN2c2ccc(S(N)(=O)=O)cc2)c1 (stereo not given)
A: 1 (yes)

Q: Please state the recorded outcome for this compound: NS(=O)(=O)c1ccc(N2N=C(c3ccccc3)CC2c2cccc(Br)c2)cc1 (stereo not given)
A: 1 (yes)

Q: Recorded call for COc1ccc(C2CC(c3ccsc3)=NN2c2ccc(S(N)(=O)=O)cc2)cc1 (stereo not given) ?
A: 1 (yes)

Q: For COc1ccc(-c2noc(CCC(=O)N3CCN(c4cc(C)ccc4C)CC3)n2)cc1 , which call appears in the assay record?
A: 0 (no)

Q: Can you look up the reported call for COc1ccc(C2CC(c3ccc(C)cc3)=NN2c2ccc(S(N)(=O)=O)cc2)cc1 (stereo not given) for me?
A: 0 (no)
